- System: ERK1;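 further: KINOMEscan kinase panel screen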
- Construct: gene MAPK3
- conditionParameters: concentration: 1 μM, replicates: in singlicate; n = 1
Overview of reported %Inh across a group of compounds:
Expressed in %, but write only the number.

Solved entries (count: 6):
compound=Cc1cccc(-c2nc(-c3ccc(S(C)(=O)=O)cc3)sc2-c2ccnc(NCCc3ccccc3)c2)c1 endpointlabel=%Inh resultunits=% measurement=0
compound=Cl.NC(=O)c1cccc(Nc2nccc(Nc3ccc(Oc4cccc(Cl)c4)c(Cl)c3)n2)c1 endpointlabel=%Inh resultunits=% measurement=3
compound=Fc1cc(Cl)ccc1Nc1ccnc2cc(-c3ccc(CN4CCCCC4)o3)ccc12 endpointlabel=%Inh resultunits=% measurement=0
compound=COc1cccc(-c2cc(-c3c[nH]nc3-c3ccccn3)ccn2)c1 endpointlabel=%Inh resultunits=% measurement=4
compound=Cl.Oc1ccc(-c2nc(-c3ccccc3)[nH]c2-c2ccncc2)cc1 endpointlabel=%Inh resultunits=% measurement=0
compound=Cn1ccc2ncnc(Oc3cccc(C(=O)Nc4ccccc4)c3)c21 endpointlabel=%Inh resultunits=% measurement=0

For the compound CCCc1ccc(S(=O)(=O)NC2CCN(c3ccnc(Nc4ccc(F)cc4)n3)C2)cc1 (centres unmarked) , the measured %Inh on ERK1 was 0

For the compound `Cn1cncc1-c1ccc2ncnc(Nc3ccc(OCc4ccccc4)cc3)c2c1` , the measured %Inh on ERK1 was 13
